The following compounds are listed with their measured melting point values.

[
  {
    "compound": "O=CNC(Cc1ccccc1)C1CC(Cc2ccccc2)=NO1 (stereo not given)",
    "melting point": "112 to 113 °C"
  },
  {
    "compound": "CCOC(=O)c1sc(Oc2ccc(Cl)cc2Cl)nc1C",
    "melting point": "71 to 73 °C"
  },
  {
    "compound": "CC1(C)CC(N2C(=O)C=CC2=O)CC(C)(C)N1OC1CCCCC1",
    "melting point": "135 to 139 °C"
  },
  {
    "compound": "O=C(c1ccc(O)cc1)c1c(Cc2ccccc2)oc2ccccc12",
    "melting point": "146 to 149 °C"
  },
  {
    "compound": "O=[N+]([O-])c1ccc2c(c1)S(=O)(=O)N=C(NCC1CC1)N2",
    "melting point": "276 to 278 °C"
  },
  {
    "compound": "Cc1cc(CCc2cc(C)c(O)c(C)c2Br)c(Br)c(C)c1O",
    "melting point": "191 to 194 °C"
  },
  {
    "compound": "N#Cc1ccc(C(OCC2OC(n3ccc(=O)[nH]c3=O)CC2O)(c2ccccc2)c2ccccc2)cc1 (stereo not given)",
    "melting point": "92 to 95 °C"
  },
  {
    "compound": "CCCNC1CN(C(=O)Nc2ccc(C(F)(F)F)cc2)N=C1c1ccc(OC(F)F)c(C)c1 (stereo not given)",
    "melting point": "90 to 92 °C"
  },
  {
    "compound": "Cc1cccc(-c2n[nH]cc2-c2ccc(F)c(-c3ccc(S(C)(=O)=O)cc3)c2)n1",
    "melting point": "100 to 102 °C"
  },
  {
    "compound": "C#CCSc1nnc(-c2cccs2)s1",
    "melting point": "71 to 73 °C"
  },
  {
    "compound": "CCN(CC)C(=O)CCC1CCN(Cc2cnc3cc(NC(=O)c4ccc(-c5ccc(F)cc5)cc4)c(C)cc3c2)CC1",
    "melting point": "150 to 154 °C"
  },
  {
    "compound": "CCC(CC)Nc1c(N)cc(C)c(C)c1[N+](=O)[O-]",
    "melting point": "80 to 82 °C"
  },
  {
    "compound": "O=C(O)C[C@H](NC(=O)OCc1ccccc1)C(=O)Nc1cc(Cc2n[nH]c(=O)c3ccccc23)ccc1F",
    "melting point": "188 to 190 °C"
  },
  {
    "compound": "COc1cc(Nc2c(C#N)cnc3cc(-c4ccc(CN5CCC(O)CC5)s4)ccc23)c(Cl)cc1Cl",
    "melting point": "120 to 123 °C"
  },
  {
    "compound": "CC(=O)SCC(=Cc1cccc2ccccc12)C(=O)NCCC(=O)OCc1ccccc1",
    "melting point": "78 °C"
  }
]

---

[
  {
    "compound": "CCCCCCCCCCCCCCCCOc1ccc(-c2nc(CC(=O)O)c(OCC)o2)cc1",
    "melting point": "89 to 91 °C"
  },
  {
    "compound": "CN(Cc1ccccc1)C(=O)COc1ccc([N+](=O)[O-])cc1",
    "melting point": "95 to 96 °C"
  },
  {
    "compound": "CCCN(CCC)Cn1cnc2c1c(=O)n(C)c(=O)n2C",
    "melting point": "72 to 73 °C"
  },
  {
    "compound": "CCC1CN(Cc2c(C)cc(C)cc2C)CCN1 (stereo not given)",
    "melting point": "111 to 114 °C"
  },
  {
    "compound": "CN(C)S(=O)(=O)c1ccc(Oc2ccc(S(C)(=O)=O)cc2)cc1",
    "melting point": "128 to 130 °C"
  },
  {
    "compound": "CCOCc1nc2cnc3ccccc3c2n1CCC(C)C",
    "melting point": "64 to 65 °C"
  },
  {
    "compound": "COc1cc(Oc2cccc(C(F)(F)F)c2)nc(C(=O)NN=CCC#N)c1",
    "melting point": "98 to 100 °C"
  },
  {
    "compound": "COCc1nc(N)nc(SC)n1",
    "melting point": "134 to 136 °C"
  },
  {
    "compound": "CNC(=O)n1nc(Oc2c(Cl)cc(C(F)(F)F)cc2Cl)cc1C",
    "melting point": "113 to 114 °C"
  },
  {
    "compound": "Nc1cccc(-c2ccc(CCN3CCN(c4nc(-c5ccccc5)cs4)CC3)cc2)n1",
    "melting point": "158 to 161 °C"
  },
  {
    "compound": "O=C(Nc1ccc2cc(CN3CCCC3)cnc2c1)c1ccc(-c2ccc(Cl)cc2)cc1",
    "melting point": "217 to 220 °C"
  },
  {
    "compound": "Fc1ccc(COc2ncc(F)c(NCc3ccccc3F)n2)cc1",
    "melting point": "83 to 84 °C"
  },
  {
    "compound": "Nc1cc(Cl)cc(C(=O)N[C@@H]2CN3CCC2CC3)c1OCc1cccc(I)c1",
    "melting point": "102 to 104 °C"
  },
  {
    "compound": "CC(=O)NC[C@H]1CN(c2ccc(C3CCN(C(=O)O)CC3)c(F)c2)C(=O)O1",
    "melting point": "144 to 146 °C"
  },
  {
    "compound": "Fc1ccc(-c2cn(-c3ccncc3)c3ccccc23)cc1",
    "melting point": "115 to 118 °C"
  },
  {
    "compound": "CC(C)NC(=S)N1CCc2[nH]cnc2C1C(C)C (stereo not given)",
    "melting point": "203 °C"
  },
  {
    "compound": "CCOC(=O)c1cc(Cl)cc2c(=O)c(C)c(-c3ccccc3)oc12",
    "melting point": "127 to 128 °C"
  },
  {
    "compound": "CCOC(=O)c1ccc(N(Cc2ccc(Cl)cc2)C(=O)OCC)cc1",
    "melting point": "43 to 46 °C"
  },
  {
    "compound": "CCOC(=O)c1c(N2CC3CC2CN3)c2cc(C)ccc2n(Cc2ccccc2)c1=O (stereo not given)",
    "melting point": "> 72 °C"
  },
  {
    "compound": "COc1ccc(-n2nc(CC(C)(C)C(=O)O)cc2-c2ccc(Cl)cc2)cc1",
    "melting point": "172 to 174 °C"
  },
  {
    "compound": "COc1ccc(S(=O)(=O)N2C(=O)C(OC(=O)Oc3ccccc3)(c3ccccc3Cl)c3cc(Cl)c(OC)cc32)c(OC)c1 (stereo not given)",
    "melting point": "162 to 163 °C"
  },
  {
    "compound": "CCCCc1nnc(SCc2ccc(Cl)cc2)n1Cc1ccc(OC(C(=O)O)c2ccccc2Cl)cc1 (stereo not given)",
    "melting point": "100 to 102 °C"
  },
  {
    "compound": "O=C(NCc1ccc(Cl)cc1)c1cn(CCCN2CCCCC2)c2ccc(C#CCO)cc2c1=O",
    "melting point": "160 to 163 °C"
  },
  {
    "compound": "O=Cc1[nH]cc2c1CN=C(c1ccccc1Cl)c1cc(Cl)ccc1-2",
    "melting point": "270 to 274 °C"
  },
  {
    "compound": "COc1c(F)c(F)cc2c(O)c(C(=O)NCc3ccc(Cl)cc3)cnc12",
    "melting point": "248 to 251 °C"
  },
  {
    "compound": "O=C(COc1ccc([N+](=O)[O-])cc1)OCCO",
    "melting point": "73.5 to 75.5 °C"
  },
  {
    "compound": "COc1cc(OC)c2c(=O)[nH]c(-c3ccc(OC)c(-c4ccc(S(C)(=O)=O)cc4)n3)nc2c1",
    "melting point": "279 to 281 °C"
  },
  {
    "compound": "CC(C)(CN)c1ccc2nc(-c3ccc(O)cc3)[nH]c2c1",
    "melting point": "178 to 182 °C"
  },
  {
    "compound": "O=Cc1cccn1-c1ncccc1[N+](=O)[O-]",
    "melting point": "122 to 125 °C"
  },
  {
    "compound": "Oc1nc2ccc(Cl)cc2nc1O",
    "melting point": "> 260 °C"
  }
]

---

property-label: melting point

[
  {
    "molecule": "CCN(CC)C(=O)Nc1ccc(Oc2ccc3sncc3c2)c(Cl)c1",
    "recorded-result": "141 °C"
  },
  {
    "molecule": "CCCCCCCCCCCCCCOc1cc(OC)cc(N)c1OCOC",
    "recorded-result": "66 to 67 °C"
  },
  {
    "molecule": "Cc1cc(Sc2cc(C)c(O)c(C)c2)cc(C)c1O",
    "recorded-result": "142 °C"
  }
]
